# credit: the supplement of paper PMC9663587

List of GRmax, 72 h values.
Tested on: HCC1954
Experiment: GRmax, 72 h; higher = less effect;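 note: breast cell lines in 384-well plates, nine doses across a 10^4 range, Dye Drop imaging of viable cells vs DMSO and time-zero plates, GR 0 means no net growth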
VALUE_KIND: GRmax, 72 h

CCN1CCN(Cc2ccc(Nc3ncc(F)c(-c4cc(F)c5nc(C)n(C(C)C)c5c4)n3)nc2)CC1 (max 10 µM); -0.505 GR
CC(C)n1nc(-c2ccc3oc(N)nc3c2)c2c(N)ncnc21 [INK128/MLN0128] (max 3.162 µM); -0.083 GR
CN(C)C/C=C/C(=O)Nc1ccc(C(=O)Nc2cccc(Nc3cc(-c4c[nH]c5ccccc45)ncn3)c2)cc1 [THZ-P1-2] (max 10 µM); -0.649 GR
NC(=O)Nc1cc(-c2cccc(F)c2)sc1C(=O)N[C@H]1CCCNC1 [AZD7762] (max 10 µM); -0.398 GR
CC(=O)c1c(C)c2cnc(Nc3ccc(N4CCN(CCOCCOCCOCCNC(=O)COc5cccc6c5C(=O)N(C5CCC(=O)NC5=O)C6=O)CC4)cn3)nc2n(C2CCCC2)c1=O (stereo not given) [BSJ-03-123] (max 10 µM); 0.0033 GR
CC(C)NC[C@@H](C(=O)N1CCN(c2ncnc3c2[C@H](C)C[C@H]3O)CC1)c1ccc(Cl)cc1 [Ipatasertib/GDC0068] (max 10 µM); 0.251 GR
O=C1NC(=NCc2cccs2)SC1=Cc1ccc2ncccc2c1 [R0-3306] (max 10 µM); -0.0775 GR
Nc1cc(C(F)(F)F)c(-c2cc(N3CCOCC3)nc(N3CCOCC3)n2)cn1 [Buparlisib/NVP-BKM120] (max 10 µM); -0.458 GR
CN1CCN(CCOc2cc(OC3CCOCC3)c3c(Nc4c(Cl)ccc5c4OCO5)ncnc3c2)CC1 [Saracatinib/AZD0530] (max 10 µM); 0.0936 GR
CNc1nc(-c2ccc3c(N)n[nH]c3c2)cc(N2C[C@@H](C(=O)NC3CCCCC3)CC[C@H]2C)n1 (max 10 µM); 0.733 GR
Cc1nc(NC(=O)N2CCC[C@H]2C(N)=O)sc1-c1ccnc(C(C)(C)C(F)(F)F)c1 [Alpelisib/BYL719] (max 10 µM); -0.341 GR
CS(=O)(=O)N1CCN(Cc2cc3nc(-c4cccc5[nH]ncc45)nc(N4CCOCC4)c3s2)CC1 [Pictilisib/GDC0941] (max 10 µM); -0.227 GR
Cc1nc(-c2cn3c(n2)-c2ccc(-c4cnn(C(C)(C)C(N)=O)c4)cc2OCC3)n(C(C)C)n1 [Taselisib/GDC0032] (max 10 µM); -0.363 GR
CN1CCN(C(=O)c2ccc3cc(CCNc4ncnc5ccc(C#N)cc45)ccc3c2)CC1 [senexin b] (max 10 µM); 0.455 GR
CC(=O)c1c(C)c2cnc(Nc3ccc(N4CCNCC4)cn3)nc2n(C2CCCC2)c1=O (max 3.162 µM); 0.526 GR
